Measured Efficacy/%TPOmax of individual entries
Test system: BAF-3/TPO-responsive human cell lines
run-description: proliferation of BAF-3/TPO-responsive human cell lines (Table 1)
Assay type: cell-based

| molecule | Efficacy/%TPOmax [%TPOmax] |
| --- | --- |
| O=C(O)c1cccc(NC(=S)NN=Cc2cccc(-c3ccc(Cl)cc3)c2O)c1 [Example 15.12] | 85 |
| O=C(O)c1cccc(NC(=S)NN=Cc2cccc(-c3cccc(C(F)(F)F)c3)c2O)c1 [Example 15.10] | 100 |
| Cc1ccc(-n2nc(C)c(C=NNC(=S)Nc3ccc(C(=O)O)cc3)c2O)cc1 [Example 15.29] | 100 |
| Cc1nn(-c2cccc(Cl)c2)c(O)c1C=NNC(=S)Nc1ccc(C(=O)O)cc1 [Example 15.31] | 100 |
| O=C(O)c1ccc(NC(=S)NN=Cc2cccc(-c3cccc(C(F)(F)F)c3)c2O)cc1 [Example 15.9] | 100 |
| Cc1ccc(-n2nc(C)c(C=NNC(=S)Nc3cccc(C(=O)O)c3)c2O)cc1 [Example 15.30] | 100 |
| Cc1ccc(-c2cccc(C=NNC(=S)Nc3cccc(C(=O)O)c3)c2O)cc1C [Example 15.8] | 90 |

Data credit: patent US7241783B2
